# SYSTEM UNDER TEST: T1, human serum albumin (human, UniProt P02768 25-609)
# T1 construct: Negative control antigen of the screening ELISA; also called HSA
# T1 sequence (P02768 25-609 limits assumed): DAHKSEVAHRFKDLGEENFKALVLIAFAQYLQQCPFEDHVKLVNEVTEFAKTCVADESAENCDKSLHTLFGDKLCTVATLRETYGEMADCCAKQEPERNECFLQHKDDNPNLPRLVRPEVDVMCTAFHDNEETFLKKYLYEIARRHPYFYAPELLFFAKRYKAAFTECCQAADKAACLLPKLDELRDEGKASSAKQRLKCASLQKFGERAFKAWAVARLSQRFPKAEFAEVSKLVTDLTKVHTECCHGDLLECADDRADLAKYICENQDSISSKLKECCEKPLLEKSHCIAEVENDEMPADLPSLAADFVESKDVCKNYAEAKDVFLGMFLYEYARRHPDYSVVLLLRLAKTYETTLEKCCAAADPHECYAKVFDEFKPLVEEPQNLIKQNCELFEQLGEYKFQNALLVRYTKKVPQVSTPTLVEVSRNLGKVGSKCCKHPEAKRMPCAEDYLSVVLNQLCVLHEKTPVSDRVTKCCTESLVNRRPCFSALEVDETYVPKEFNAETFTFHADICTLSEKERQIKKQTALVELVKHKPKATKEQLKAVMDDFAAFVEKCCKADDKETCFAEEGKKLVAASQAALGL
# EXPERIMENTAL PROTOCOL: ELISA, bacterial lysate on plate-bound antigen, luminescence
REPORTED METRIC: ELISA HSA (RLU)
The reply should contain only the number, in RLU.

Example entries and their recorded answers appear below.
# return recorded ELISA HSA (RLU) for input ISOP120BR5P1C1 (designed binder, not shown: small tags and cut ends, FN3 domain (Centyrin); tested as E. coli lysate) LPAPKNLVVSRVTEDSARLSWVREDAYAFDSFLIQYQESEKVGEAIVLTVPGSERSYDLTGLKPGTEYTVSIYGVSSLHWVVHDSNPLSAIFTT
480

Please give the documented ELISA HSA (RLU) of ISOP120FR5P1C2 (designed binder, not shown: small tags and cut ends, FN3 domain (Centyrin); tested as E. coli lysate) LPAPKNLVVSRVTEDSARLSWTAPDAAFDSFDINYFEQPKGGEAIVLTVPGSERSYDLTGLKPGTEYLVTIYGVKGGPYSPPLSAIFTT
400

Read the entry ISOP120AR5P1D2 (designed binder, not shown: small tags and cut ends, FN3 domain (Centyrin); tested as E. coli lysate) LPAPKNLVVSRVTEDSARLSWDFAYFKFDSFLIQYQESEKVGEAIVLTVPGSERSYDLTGLKPGTEYTVSIYGVGRFYTVYYSNPLSAIFTT and write its reported ELISA HSA (RLU).
640

New cases:
Report ELISA HSA (RLU) for ISOP120GR5P1B11 (designed binder, not shown: small tags and cut ends, FN3 domain (Centyrin); tested as E. coli lysate) LPAPKNLVVSRVTEDSARLSWTAPDAAFDSFNIKYWEANLYGEAIVLTVPGSERSYGLTGLKPGTEYRVHIRGVKGGINSFPLVAVFTT
160

Entry source: patent US20220259289A1
